Source listed as paper PMC6753678.

Tested on: HepG2 cells
measurement protocol: HepG2 cytotoxicity assay
test context: HepG2 cytotoxicity unified across screens; >25 set to 25.00
Procedure: Briefly, HepG2 cells were seeded onto compound-treated 384 well plates at a density of 2,500 cells per well in Minimal Essential Medium (MEM) plus 10% fetal bovine serum and 1% non-essential amino acids solution (NEAA). […] Cell viability was then measured in a fluorescent plate reader and percent inhibition calculated with respect to positive and negative controls.
Here the recorded Unified cytotox is given for each entry.
# number then unit; no other words

- compound: "CCc1ccc(CN2CCC(CNC(=O)c3cc(-c4cccc(F)c4)cs3)C2)cc1.O=C(O)C(F)(F)F (centres unmarked) [TCMDC-134432]"
  measurement: "7.22 µM"
- compound: "Fc1ccc2[nH]c(-c3cccc(-c4ccc(CNCCN5CCNCC5)cc4)c3)nc2c1.O=C(O)C(F)(F)F [TCMDC-132863]"
  measurement: "24.16 µM"
- compound: "Cl.c1ccc2c(c1)cc(CNCCCN1CCN(CCCNCc3cc4ccccc4c4ccccc34)CC1)c1ccccc12 [TCMDC-137914]"
  measurement: "13.70 µM"
- compound: "COc1cc(Br)c(S(=O)(=O)n2cc(CN3CCC(N)CC3)c3cc(Cl)ccc32)cc1OC.O=C(O)C(F)(F)F [TCMDC-136384]"
  measurement: "6.70 µM"
- compound: "C[C@H]1CN(Cc2cccc(-c3cc(CNC(=O)c4cccc(CC5CCN(C)CC5)c4)ccc3F)c2)CCN1C [TCMDC-136349]"
  measurement: "6.97 µM"

Find the measured Unified cytotox of CC(C)CNCc1cccc(-c2ccc(CN(CCCN3CCN(C)CC3)C(=O)CCC3CCCC3)cc2)c1.O=C(O)C(F)(F)F [TCMDC-140558] and report it. 25.00 µM

Find the measured Unified cytotox of COc1ccc2nc3cc(Cl)ccc3c(NCCCCNc3c4ccc(Cl)cc4nc4ccc(OC)cc34)c2c1 [TCMDC-138218] and report it. 14.47 µM

Find the measured Unified cytotox of COc1cc2ccccc2cc1OCCCN1CCN(CC(c2ccc(F)cc2)N2CCN(C(C)C)CC2)CC1.Cl (centres unmarked) [TCMDC-135496] and report it. 3.72 µM

Find the measured Unified cytotox of CCN(Cc1ccc(-c2ccc(C(F)(F)F)cc2)cc1)C(=O)Cn1c(SCc2cccc(F)c2F)cc(=O)c2cc(CN3CCCCC3)ccc21.Cl [TCMDC-141592] and report it. 4.20 µM

Find the measured Unified cytotox of COc1ccc2c(=NN=Cc3ccc(OC)c4ccccc34)cc(C)[nH]c2c1 [TCMDC-142218] and report it. 7.86 µM

Find the measured Unified cytotox of O=C(Nc1cccc(Oc2ccccc2)c1)N[C@H]1CCN(Cc2ccc(OCCCN3CCCCC3)cc2)C1 [TCMDC-141785] and report it. 3.52 µM
